Measured values drawn from ChEMBL document CHEMBL1143634 for this set.

Give measured Log PNalk for each item. Keep answers brief.
# assay-method-text: Lipophilicity determined as logarithm of the partition coefficient in the alkane/water system
# condition-summary: octanol/water
Answers are plain numbers.

COc1ccc2c(c1)c(CC(=O)O)c(C)n2C(=O)c1ccc(Cl)cc1	0.98
C[C@]12CC[C@H]3[C@@H](CCC4=CC(=O)CC[C@@]43C)[C@@H]1CC[C@@H]2C(=O)CO	0.48
C[S+]([O-])c1ccccc1 (stereo not given) [METHYLPHENYLSULFOXIDE]	-1.52
CC(C)(C)NC[C@H](O)COc1ccccc1C1CCCC1	3.06
C1CCSC1 [TETRAHYDROTHIOPHENE]	1.59

Quick batch: Log PNalk for everything below.
1. CNC(=O)Oc1ccc2c(c1)[C@]1(C)CCN(C)[C@@H]1N2C
2. NC1=NCC2c3ccccc3Cc3ccccc3N12 (stereo not given) [EPINASTINE]
3. CSc1ccccc1
4. O=C(O)c1ccc(O)cc1
5. Cn1c(=O)c2[nH]cnc2n(C)c1=O.O

1. -0.46
2. 1.76
3. 2.81
4. -1.82
5. -1.7

----------
# assay-method-text: Tested for fraction of oral dose absorbed orally in humans
# Format: ADME
# condition-summary: human, read-out: Activity
property-name: Fa
Be sure to follow the number with its unit.

The recorded Fa for `O=C(O)c1cc(/N=N/c2ccc(S(=O)(=O)Nc3ccccn3)cc2)ccc1O` is 13%

----------
Give measured Log PNalk for each item. Keep answers brief.
# assay-method-text: Lipophilicity determined as logarithm of the partition coefficient in the alkane/water system
# condition-summary: octanol/water

Here is how some molecules turned out for Log PNalk.
c1ccc(-c2ccncc2)cc1	1.58
COc1ccc(CN(CCN(C)C)c2ccccn2)cc1	2

Quick batch: Log PNalk for everything below.
1. CCCCC
2. Nc1cccc([N+](=O)[O-])c1
3. CN1C(=O)NC(=O)C(C)(C2=CCCCC2)C1=O (stereo not given) [HEXOBARBITAL]
4. O=[N+]([O-])c1ccc(/C=N/O)o1
5. Nc1cccc(Cl)c1
6. COc1cccc(O)c1 [1-hydroxy-3-methoxybenzene]

1. 4.18
2. -0.46
3. -0.57
4. -1.1
5. 0.71
6. -0.88

Quick batch: Log PNalk for everything below.
1. COc1ccccc1C(=O)O
2. COC(C)=O

[2.08, -0.26]

----------
Give measured Log PNalk for each item. Keep answers brief.
# assay-method-text: Lipophilicity determined as logarithm of the partition coefficient in the alkane/water system
# condition-summary: octanol/water
Answers are plain numbers.

Oc1ccccc1Cl	0.76
O=[N+]([O-])c1cccc(O)c1	-1.23
CCCC(C)C1(CC)C(=O)NC(=O)NC1=O (stereo not drawn)	-1.22
CC(C)c1ccccc1O	0.96

Quick batch: Log PNalk for everything below.
1. Cc1ccc(C(C)C)c(O)c1
2. COC(=O)c1ccccc1 [METHYL BENZOATE]
3. Cc1ccccc1N
4. CC(C1=C(CCN(C)C)Cc2ccccc21)c1ccccn1 (stereo not drawn)
5. Oc1cccc(F)c1
6. CN1CCC[C@H]1c1cccnc1
7. O=C(O)c1cccc([N+](=O)[O-])c1

1. 1.4
2. 2.13
3. 0.47
4. 1.65
5. -0.83
6. 0.03
7. -1.22

----------
# assay-method-text: Lipophilicity determined as logarithm of the partition coefficient in the alkane/water system
# condition-summary: octanol/water
Simple rule here: Log PNalk less than 0.3 is rule met, otherwise rule not met.

Some solved entries appear below for comparison.
COc1ccc(CCN2CCC(Nc3nc4ccccc4n3Cc3ccc(F)cc3)CC2)cc1 [ASTEMIZOLE]	rule not met
COc1ccc(O)cc1 [MEQUINOL]	rule met
CN1CCC(=C2c3ccccc3CCc3cccnc32)CC1 [AZATADINE]	rule not met
O=C(O)C(Cl)(Cl)Cl [TRICHLOROACETIC ACID]	rule met
COc1ccccc1O [GUAIACOL]	rule not met
[O-][n+]1cccc2ccccc21	rule met

# input for lookup
Quick check: Log PNalk of CCCCCO [1-PENTANOL] under 0.3?
rule met
